Reference for the values: patent US20220177583A1

Assign FACS signal to each entry below.
- tested_on: human CLDN6 fused to GFP, expressed on engineered HEK293T cells (human) (UniProt P56747)
- procedure_summary: FACS, 293T clone with human CLDN6, 0.3 ug Ab
Give bare numbers.

binder	FACS signal
AB1-8 (antibody, V domains shown) VH: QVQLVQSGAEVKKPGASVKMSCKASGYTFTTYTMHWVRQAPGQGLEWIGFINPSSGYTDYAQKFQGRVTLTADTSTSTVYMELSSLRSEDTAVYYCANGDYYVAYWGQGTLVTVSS VL: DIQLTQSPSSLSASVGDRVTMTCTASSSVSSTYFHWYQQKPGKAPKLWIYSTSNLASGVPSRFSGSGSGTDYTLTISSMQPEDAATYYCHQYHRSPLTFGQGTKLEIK	98800

I'd like to know its FACS signal. The binder in question is AB4-9 (antibody, V domains shown) VH: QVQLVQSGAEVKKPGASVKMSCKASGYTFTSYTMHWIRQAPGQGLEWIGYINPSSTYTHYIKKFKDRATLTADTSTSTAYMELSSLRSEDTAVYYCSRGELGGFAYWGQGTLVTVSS VL: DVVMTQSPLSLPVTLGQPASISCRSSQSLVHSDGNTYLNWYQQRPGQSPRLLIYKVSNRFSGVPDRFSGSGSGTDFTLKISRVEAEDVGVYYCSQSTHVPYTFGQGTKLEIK
37200
